Documented IC50 across a set of compounds
Target: DRAK1 (Homo sapiens (Human))
Sequence (Q9UEE5 whole entry): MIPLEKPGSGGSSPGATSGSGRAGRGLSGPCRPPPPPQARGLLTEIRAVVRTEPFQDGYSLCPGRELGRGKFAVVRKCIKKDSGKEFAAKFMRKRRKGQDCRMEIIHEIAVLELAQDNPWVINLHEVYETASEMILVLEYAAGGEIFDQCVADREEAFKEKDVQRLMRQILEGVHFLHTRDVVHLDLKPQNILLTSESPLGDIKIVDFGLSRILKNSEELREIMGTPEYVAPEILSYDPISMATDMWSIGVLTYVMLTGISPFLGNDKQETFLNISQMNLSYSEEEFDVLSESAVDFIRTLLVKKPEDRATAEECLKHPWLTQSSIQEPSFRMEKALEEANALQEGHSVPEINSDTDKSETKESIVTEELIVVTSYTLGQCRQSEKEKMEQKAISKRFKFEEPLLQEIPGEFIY
Assay: DRAK1 kinase activity inhibition (ADP-Glo, MRCL3 peptide substrate)
Assay type: biochemical
Settings: Table 4; Experimental Example 2, DRAK2 selectivity evaluation
Give your result in nM as a bare value.

                                   compound                 system_tested  reported_property  recorded_number
0  NCCCNc1nc(Nc2ccc(Cl)cc2)ncc1Br [Comparative Example 6, reference compound]  DRAK1 (Homo sapiens (Human))               IC50               40
1             Cc1cnc(Nc2ccc(Cl)cc2)nc1NCCCN  DRAK1 (Homo sapiens (Human))               IC50              710

Now consider a different compound.
**Query** Look up IC50 for this compound: `NCCCNc1nc(Nc2ccc(Cl)cc2)ncc1Cl`
**Result** 410
